Reference source for all entries: ChEMBL document CHEMBL1772993

Assay: Octanol-buffer distribution coefficient, log D of the compound at pH 7.4
Assay type: physicochemical
Quantity Measured: logD

// worked examples, logD included
                      smiles_representation  recorded_value
0      O=C1c2ncc3c(ccn3Cc3ccc(F)cn3)c2CCN1O             0.6
1  CC(=O)N(C)CCCc1cn(Cc2ccc(F)cc2)c2cnc3c(c12)CCN(O)C3=O            0.76
2  COCCN(C)S(=O)(=O)c1cn(Cc2ccc(F)cc2)c2cnc3c(c12)CCN(O)C3=O            1.14
3      O=C1c2ncc3c(ccn3Cc3ccc(F)cc3)c2CCN1O            1.39
4  CC(C)OCCOCc1cn(Cc2ccc(F)cc2)c2cnc3c(c12)CCN(O)C3=O            2.12

Exercise: Find the recorded logD belonging to CC(C)(O)CCc1cn(Cc2ccc(F)cc2)c2cnc3c(c12)CCN(O)C3=O and report it.
Key: 1.67

Exercise: Dear colleague, I am looking for the recorded logD of the following compound: CC1CCN(S(=O)(=O)c2cn(Cc3ccc(F)cc3)c3cnc4c(c23)CCN(O)C4=O)CC1
Key: 2.14

Exercise: Tell me the measured logD of CN(CCO)Cc1cn(Cc2ccc(F)cc2)c2cnc3c(c12)CCN(O)C3=O , please.
Key: 0.67

Exercise: Name the recorded logD for O=C1c2ncc3c(c(COCCCc4ccccn4)cn3Cc3ccc(F)cc3)c2CCN1O .
Key: 2.15

Exercise: Requested read-out: logD. Entry: CN(C)S(=O)(=O)c1cn(Cc2ccc(F)cc2)c2cnc3c(c12)CCN(O)C3=O
Key: 1.29
